Record form. Attribute: pKi. Fill in for each entry.
# system: Mu-type opioid receptor (Cavia porcellus)
# Sequence (P97266 whole entry): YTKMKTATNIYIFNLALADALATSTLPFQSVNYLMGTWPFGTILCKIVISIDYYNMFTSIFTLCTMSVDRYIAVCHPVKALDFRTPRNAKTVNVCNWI
The value called pKi is obtained by taking minus log10 of the concentration in mol/L.

Query block: So what's the measured pKi for this one? `CN(CC1CC1)[C@@H]1Cc2ccc(O)c3c2[C@]24CCO[C@]12CCC(=O)[C@@H]4O3`
Result block: 7.62

Query block: Entry `C=C[C@]12c3c4ccc(O)c3O[C@H]1C(=O)CC[C@@]2(O)[C@H](NCC1CC1)C4` : reported pKi = ?
Result block: 8.07

Query block: What value of pKi has been reported for the following compound? `CC[C@]12c3c4ccc(O)c3O[C@H]1C(=O)CC[C@@]2(O)[C@H](NCC1CC1)C4`
Result block: 7.58

Query block: Need pKi of `C=C[C@]12c3c4ccc(O)c3O[C@H]1C(=O)CC[C@@]2(O)[C@H](N(C)CC1CC1)C4` , thanks.
Result block: 7.58

====

Recorded below: IC50, system Kappa-type opioid receptor (Cavia porcellus, UniProt P41144).

Query block: // query IC50 value for entry `CN(CC1CC1)[C@@H]1Cc2ccc(O)c3c2[C@]24CCO[C@]12CCC(=O)[C@@H]4O3`
Result block: > 1000 nM

Query block: Record request: IC50 value, item `CC[C@]12c3c4ccc(O)c3O[C@H]1C(=O)CC[C@@]2(O)[C@H](N(C)CC1CC1)C4`
Result block: > 1000 nM

Query block: Item `CN(CC1CC1)[C@@H]1Cc2ccc(O)c3c2[C@@]2(CCO3)CC(=O)CC[C@@]12O` has what recorded IC50?
Result block: > 1000 nM

====

# method.description: Displacement of [3H]NTI from delta opioid receptor in guinea pig forebrain
# Design: species or system Cavia porcellus
measured.metric: IC50

Query block: Any idea what its IC50 is? The molecule is `CN(CC1CC1)[C@@H]1Cc2ccc(O)c3c2[C@@]2(CCO3)CC(=O)CC[C@@]12O`
Result block: > 1000 nM

Query block: What does the data say about its IC50? Entry: CN(CC1CC1)C1Cc2ccc(O)c3c2[C@@]2(CCn4ccnn4)[C@@H](O3)C(=O)CC[C@@]12O (some centres not stated)
Result block: > 1000 nM

====

# method.description: Displacement of [3H]NTI from delta opioid receptor in guinea pig forebrain
# Parameters: species or system Cavia porcellus
measured.metric: pKi
Give only the number. pKi is defined as minus log10 of concentration in molar units.

Query block: Would you kindly share the measured pKi for `CC[C@]12c3c4ccc(O)c3O[C@H]1C(=O)CC[C@@]2(O)[C@H](NCC1CC1)C4` ?
Result block: 7.62

Query block: // query pKi value for entry `CC[C@]12c3c4ccc(O)c3O[C@H]1C(=O)CC[C@@]2(O)[C@H](N(C)CC1CC1)C4`
Result block: 7.11

Query block: Given the entry `C=C[C@]12c3c4ccc(O)c3O[C@H]1C(=O)CC[C@@]2(O)[C@H](N(C)CC1CC1)C4` , report its measured pKi.
Result block: 7.40

Query block: Which pKi value is on record for `C=C[C@]12c3c4ccc(O)c3O[C@H]1C(=O)CC[C@@]2(O)[C@H](NCC1CC1)C4` ?
Result block: 8.33

Query block: # query: pKi of entry `CN(CC1CC1)[C@@H]1Cc2ccc(O)c3c2[C@]24CCO[C@]12CCC(=O)[C@@H]4O3`
Result block: 7.36
